# EXPERIMENTAL_TARGET: T1, orthogonal hCD122 receptor (hoRb), hCD122 with H133D and Y134F (human, UniProt P14784 27-550)
# T1 sequence: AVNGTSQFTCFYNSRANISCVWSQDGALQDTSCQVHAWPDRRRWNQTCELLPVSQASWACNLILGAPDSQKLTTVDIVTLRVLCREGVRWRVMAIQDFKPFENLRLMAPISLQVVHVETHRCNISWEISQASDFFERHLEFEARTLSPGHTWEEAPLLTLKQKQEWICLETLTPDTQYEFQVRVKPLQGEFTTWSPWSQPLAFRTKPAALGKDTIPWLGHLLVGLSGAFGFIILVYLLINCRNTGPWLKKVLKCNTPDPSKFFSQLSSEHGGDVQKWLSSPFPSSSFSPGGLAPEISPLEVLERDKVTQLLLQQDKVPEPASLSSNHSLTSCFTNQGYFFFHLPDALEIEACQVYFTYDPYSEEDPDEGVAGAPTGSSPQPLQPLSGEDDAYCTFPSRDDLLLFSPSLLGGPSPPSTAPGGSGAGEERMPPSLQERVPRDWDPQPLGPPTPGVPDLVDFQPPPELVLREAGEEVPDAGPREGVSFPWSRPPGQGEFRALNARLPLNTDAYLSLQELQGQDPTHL
# PROTOCOL_SUMMARY: cell-based or functional assay
3F8 Ortho Proliferation Signal 1:50 values, listed per item
QUANTITY_KIND: 3F8 Ortho Proliferation Signal 1:50 (cts/min)

# BINDER, TEST_VALUE
data = [
    ("I92F, SQVLKA (ligand) APTSSSTKKTQLQLSQLLVLLKAILNGINNYKNPKLTRMLTFKFYMPKKATELKHLQCLEEELKPLEEVLNLAQSKNFHLRPRDLISNINVFVLELKGSETTFMCEYADETATIVEFLNRWITFCQSIISTLT", 20900),
    ("ΔL19, SQ_LKA (ligand) APTSSSTKKTQLQLSQLLLLKAILNGINNYKNPKLTRMLTFKFYMPKKATELKHLQCLEEELKPLEEVLNLAQSKNFHLRPRDLISNINVIVLELKGSETTFMCEYADETATIVEFLNRWITFCQSIISTLT", 1540),
    ("L18Y, SQVLKA (ligand) APTSSSTKKTQLQLSQLYVLLKAILNGINNYKNPKLTRMLTFKFYMPKKATELKHLQCLEEELKPLEEVLNLAQSKNFHLRPRDLISNINVIVLELKGSETTFMCEYADETATIVEFLNRWITFCQSIISTLT", 28200),
    ("SQVLRA (ligand) APTSSSTKKTQLQLSQLLVLLRAILNGINNYKNPKLTRMLTFKFYMPKKATELKHLQCLEEELKPLEEVLNLAQSKNFHLRPRDLISNINVIVLELKGSETTFMCEYADETATIVEFLNRWITFCQSIISTLT", 19600),
    ("SQVLKV (ligand) APTSSSTKKTQLQLSQLLVLLKVILNGINNYKNPKLTRMLTFKFYMPKKATELKHLQCLEEELKPLEEVLNLAQSKNFHLRPRDLISNINVIVLELKGSETTFMCEYADETATIVEFLNRWITFCQSIISTLT", 21000),
    ("Q74N, SQVLKA (ligand) APTSSSTKKTQLQLSQLLVLLKAILNGINNYKNPKLTRMLTFKFYMPKKATELKHLQCLEEELKPLEEVLNLANSKNFHLRPRDLISNINVIVLELKGSETTFMCEYADETATIVEFLNRWITFCQSIISTLT", 21900),
    ("SQVLMA (ligand) APTSSSTKKTQLQLSQLLVLLMAILNGINNYKNPKLTRMLTFKFYMPKKATELKHLQCLEEELKPLEEVLNLAQSKNFHLRPRDLISNINVIVLELKGSETTFMCEYADETATIVEFLNRWITFCQSIISTLT", 3800),
    ("Q126K, SQVLKA (ligand) APTSSSTKKTQLQLSQLLVLLKAILNGINNYKNPKLTRMLTFKFYMPKKATELKHLQCLEEELKPLEEVLNLAQSKNFHLRPRDLISNINVIVLELKGSETTFMCEYADETATIVEFLNRWITFCKSIISTLT", 964),
    ("V91R, SQVLKA (ligand) APTSSSTKKTQLQLSQLLVLLKAILNGINNYKNPKLTRMLTFKFYMPKKATELKHLQCLEEELKPLEEVLNLAQSKNFHLRPRDLISNINRIVLELKGSETTFMCEYADETATIVEFLNRWITFCQSIISTLT", 2850),
    ("Q126C, SQVLKA (ligand) APTSSSTKKTQLQLSQLLVLLKAILNGINNYKNPKLTRMLTFKFYMPKKATELKHLQCLEEELKPLEEVLNLAQSKNFHLRPRDLISNINVIVLELKGSETTFMCEYADETATIVEFLNRWITFCCSIISTLT", 748),
    ("M39L, SQVLKA (ligand) APTSSSTKKTQLQLSQLLVLLKAILNGINNYKNPKLTRLLTFKFYMPKKATELKHLQCLEEELKPLEEVLNLAQSKNFHLRPRDLISNINVIVLELKGSETTFMCEYADETATIVEFLNRWITFCQSIISTLT", 12200),
]
